Test: Particle size distribution by laser diffraction (Malvern Mastersizer 2000)
Type: physicochemical
Details: laser diffraction
Source text: As used herein, the term “particle size” or “particle size distribution (PSD)” when referring to the compound of formula (I) is a list of values that defines the relative amount, typically by mass or volume, of particles present according to size. […] With the application of an appropriate model of light behavior the particle-size distribution of the sample can be determined from the scattering data, via a deconvolution step. […]
Outcome measure: Particle Size D10
# do not omit the unit; it follows the number

Example compounds with recorded Particle Size D10:
C[C@@]1(O)CC[C@H]2[C@H](CC[C@@H]3[C@@H]2CC[C@]2(C)[C@@H](C(=O)Cn4cc(C#N)cn4)CC[C@@H]32)C1 [Un-micronized Form C of Compound 1d] = 5.6 μm
C[C@@]1(O)CC[C@H]2[C@H](CC[C@@H]3[C@@H]2CC[C@]2(C)[C@@H](C(=O)Cn4cc(C#N)cn4)CC[C@@H]32)C1 [Micronized Form C of Compound 1b] = 0.8 μm
C[C@@]1(O)CC[C@H]2[C@H](CC[C@@H]3[C@@H]2CC[C@]2(C)[C@@H](C(=O)Cn4cc(C#N)cn4)CC[C@@H]32)C1 [Un-micronized Form C of Compound 1c] = 3.6 μm
C[C@@]1(O)CC[C@H]2[C@H](CC[C@@H]3[C@@H]2CC[C@]2(C)[C@@H](C(=O)Cn4cc(C#N)cn4)CC[C@@H]32)C1 [Micronized Form C of Compound 1d] = 1.0 μm
C[C@@]1(O)CC[C@H]2[C@H](CC[C@@H]3[C@@H]2CC[C@]2(C)[C@@H](C(=O)Cn4cc(C#N)cn4)CC[C@@H]32)C1 [Micronized Form C of Compound 1a] = 0.9 μm

Report Particle Size D10 for each item below.
1. C[C@@]1(O)CC[C@H]2[C@H](CC[C@@H]3[C@@H]2CC[C@]2(C)[C@@H](C(=O)Cn4cc(C#N)cn4)CC[C@@H]32)C1 [Un-micronized Form C of Compound 1a]
2. C[C@@]1(O)CC[C@H]2[C@H](CC[C@@H]3[C@@H]2CC[C@]2(C)[C@@H](C(=O)Cn4cc(C#N)cn4)CC[C@@H]32)C1 [Micronized Form A of Compound 1]
3. C[C@@]1(O)CC[C@H]2[C@H](CC[C@@H]3[C@@H]2CC[C@]2(C)[C@@H](C(=O)Cn4cc(C#N)cn4)CC[C@@H]32)C1 [Micronized Form C of Compound 1c]

1: 3.1 μm; 2: 1.5 μm; 3: 1.1 μm

Give the measured Particle Size D10 of C[C@@]1(O)CC[C@H]2[C@H](CC[C@@H]3[C@@H]2CC[C@]2(C)[C@@H](C(=O)Cn4cc(C#N)cn4)CC[C@@H]32)C1 [Un-micronized Form C of Compound 1b] .
3.2 μm

====

Test: Particle size distribution by laser diffraction (Malvern Mastersizer 2000)
Type: physicochemical
Settings: laser diffraction
From the text: As used herein, the term “particle size” or “particle size distribution (PSD)” when referring to the compound of formula (I) is a list of values that defines the relative amount, typically by mass or volume, of particles present according to size. […] With the application of an appropriate model of light behavior the particle-size distribution of the sample can be determined from the scattering data, via a deconvolution step. […]
Lab note: anything with Particle Size D50 at or over 3 μm counts as yes (1); the rest go in no (0).

Examples from the recorded data:
C[C@@]1(O)CC[C@H]2[C@H](CC[C@@H]3[C@@H]2CC[C@]2(C)[C@@H](C(=O)Cn4cc(C#N)cn4)CC[C@@H]32)C1 [Un-micronized Form C of Compound 1a] = yes (1)
C[C@@]1(O)CC[C@H]2[C@H](CC[C@@H]3[C@@H]2CC[C@]2(C)[C@@H](C(=O)Cn4cc(C#N)cn4)CC[C@@H]32)C1 [Un-micronized Form C of Compound 1c] = yes (1)
C[C@@]1(O)CC[C@H]2[C@H](CC[C@@H]3[C@@H]2CC[C@]2(C)[C@@H](C(=O)Cn4cc(C#N)cn4)CC[C@@H]32)C1 [Micronized Form C of Compound 1c] = no (0)

Identify whether the reported Particle Size D50 of the following compound is 3 μm or greater: C[C@@]1(O)CC[C@H]2[C@H](CC[C@@H]3[C@@H]2CC[C@]2(C)[C@@H](C(=O)Cn4cc(C#N)cn4)CC[C@@H]32)C1 [Micronized Form A of Compound 1]
yes (1)

Identify whether the reported Particle Size D50 of the following compound is 3 μm or greater: C[C@@]1(O)CC[C@H]2[C@H](CC[C@@H]3[C@@H]2CC[C@]2(C)[C@@H](C(=O)Cn4cc(C#N)cn4)CC[C@@H]32)C1 [Micronized Form C of Compound 1d]
no (0)
